Hello, the source for this data is patent US10899769B2, in case you need it.

Kindly state IC50 for each of the entries shown.
# SYSTEM_TESTED: BRD4(49-170) bromodomain (Homo sapiens (Human))
# ASSAY: BRD4 AlphaScreen Assay
# MEASUREMENT_CONDITIONS: binding to biotin-H4(1-21) Ac-K5/8/12/16
Numbers only here, please. The scale is µM.

The recorded IC50 for entry CC1C(=O)N(C)Cc2c(-c3cccc4cc(-c5ccn(C)n5)ncc34)nc(C3CCOCC3)n21 (stereo not drawn) [Example 85] equals 24.1

IC50 reading for CN1Cc2c(-c3cccc4nc(-c5cnn(C)c5)c(C(F)F)cc34)nc(C3CCOCC3)n2CC1=O [Example 93] : 25

The molecule CC1C(=O)N(C)Cc2c(-c3cccc4nc(-c5cnn(C)c5)c(C(F)F)cc34)nc(C3CCN(CC(F)F)CC3)n21 (stereo not drawn) [Example 78] showed IC50 equal to 3.77

// IC50 lookup, molecule = Cc1ncn(-c2nc3cccc(-c4nc(C5CC5)n5c4CN(C)C(=O)C5C)c3cc2C(F)F)n1 (stereo not drawn) [Example 67] , result: 0.319

Reported IC50 of CC1C(=O)N(C)Cc2c(-c3c(F)ccc4cc(C5CCOCC5)ncc34)nc(C3CCOCC3)n21 (single isomer, unassigned) [Example 34b] : 1.23

IC50 in this record for CN1Cc2c(-c3cccc4nc(-c5cnn(C)c5)c(C#N)cc34)nc(C3CCOCC3)n2CC1=O [Example 92] : 25

Value of IC50 reported for the molecule CC1C(=O)N(C)Cc2c(-c3ccn4cncc4c3)nc(C3CC3)n21 (stereo not drawn) [Example 57] is 2.61

IC50 in this record for CC1C(=O)N(C)Cc2c(-c3ccc4c(c3)c(-c3cnn(C)c3)nn4C)nc(C3=CCOCC3)n21 (stereo not drawn) [Example 41] : 1.61

Quick note, IC50 for Cc1c(-c2nc3cccc(-c4nc(C5CC5)n5c4CN(C)C(=O)C5C)c3cc2C(F)F)cnn1C (stereo not drawn) [Example 61] landed at 0.511

Lab book: IC50 of CC1C(=O)N(C)Cc2c(-c3cccc4cc(C5CCOCC5)ncc34)nc(C3CCOCC3)n21 (single isomer, unassigned) [Example 15a] noted as 19.7

Data point: CN1Cc2c(-c3c(F)ccc4cc(C5CCOCC5)ncc34)nc(C3CCOCC3)n2CC1=O [Example 101] ; IC50 = 25

For Cc1cn(-c2nc3cccc(-c4nc(C5CC5)n5c4CN(C)C(=O)C5C)c3cc2C(F)F)nn1 (stereo not drawn) [Example 12] the molecule record lists IC50 as 0.13

What the record says about Cc1nn(C)cc1-c1nc2cccc(-c3nc(C4CC4)n4c3CN(C)C(=O)C4C)c2cc1C(F)F (stereo not drawn) [Example 65] : IC50 is 0.426

Summary for this molecule, CN1Cc2c(N3CCCc4cc(-c5cnn(C)c5)c(C(F)F)cc43)nc(C3CC3)n2CC1=O [Example 106] : IC50 is 5.7

* * *

# SYSTEM_TESTED: GST-CBP(1081-1197) bromodomain (Homo sapiens (Human))
# Sequence (Q92793 1081-1197): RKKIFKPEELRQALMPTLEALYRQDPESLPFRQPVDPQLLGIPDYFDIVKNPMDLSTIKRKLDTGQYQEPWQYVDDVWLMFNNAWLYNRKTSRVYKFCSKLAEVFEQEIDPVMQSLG
# ASSAY: CBP AlphaScreen Assay
# MEASUREMENT_CONDITIONS: binding to biotin-H4(1-21) Ac-K5/8/12/16
What pIC50 was measured for each of the following?
Scale for pIC50: -log10 of concentration given in mol/L; no unit attached.

Entry Cc1nn(C)cc1-c1cc2cccc(-c3nc(C4CCOCC4)n4c3CN(C)C(=O)C4C)c2cn1 (stereo not shown) [Example 87] , pIC50 reported as 7.11

Please fill in: pIC50 reported for COCCN1CC(c2nc(-c3cccc4nc(-c5cnn(C)c5)c(C(F)F)cc34)c3n2C(C)C(=O)N(C)C3)C1 (stereo not shown) = 7.03

pIC50 reading for CC1C(=O)N(C)Cc2c(-c3cccc4nc(-c5cnn(C)c5)c(C(F)F)cc34)nc(C3CN(CCO)C3)n21 (stereo not shown) : 6.91

GET /value?item= CC1C(=O)N(C)Cc2c(-c3cccc4nc(-c5cnn(C)c5)c(C(F)F)cc34)nc(C3CCNCC3)n21 (stereo not shown) &field=pIC50 returns 6.76

pIC50 in this record for CC1C(=O)N(C)Cc2c(-c3cccc4cc(C5CCOCC5)ncc34)nc(C3CCOCC3)n21 (single isomer, unassigned) [Example 15a] : 6.77

The reported value for CC1C(=O)N(C)Cc2c(-c3cccc4nc(-c5nsc(=O)[nH]5)c(C(F)F)cc34)nc(C3CC3)n21 (stereo not shown) in terms of pIC50 is 8.70

Note to self: pIC50 recorded for CC1C(=O)N(C)Cc2c(-c3ccc4c(c3)c(-c3cnn(C)c3)nn4C)nc(C3=CCOCC3)n21 (stereo not shown) was 7.85
